Target: Porcine DPP-IV (Sus scrofa, UniProt P22411)
Construct: purchased Sigma-Aldrich Germany
Sequence (P22411 whole entry): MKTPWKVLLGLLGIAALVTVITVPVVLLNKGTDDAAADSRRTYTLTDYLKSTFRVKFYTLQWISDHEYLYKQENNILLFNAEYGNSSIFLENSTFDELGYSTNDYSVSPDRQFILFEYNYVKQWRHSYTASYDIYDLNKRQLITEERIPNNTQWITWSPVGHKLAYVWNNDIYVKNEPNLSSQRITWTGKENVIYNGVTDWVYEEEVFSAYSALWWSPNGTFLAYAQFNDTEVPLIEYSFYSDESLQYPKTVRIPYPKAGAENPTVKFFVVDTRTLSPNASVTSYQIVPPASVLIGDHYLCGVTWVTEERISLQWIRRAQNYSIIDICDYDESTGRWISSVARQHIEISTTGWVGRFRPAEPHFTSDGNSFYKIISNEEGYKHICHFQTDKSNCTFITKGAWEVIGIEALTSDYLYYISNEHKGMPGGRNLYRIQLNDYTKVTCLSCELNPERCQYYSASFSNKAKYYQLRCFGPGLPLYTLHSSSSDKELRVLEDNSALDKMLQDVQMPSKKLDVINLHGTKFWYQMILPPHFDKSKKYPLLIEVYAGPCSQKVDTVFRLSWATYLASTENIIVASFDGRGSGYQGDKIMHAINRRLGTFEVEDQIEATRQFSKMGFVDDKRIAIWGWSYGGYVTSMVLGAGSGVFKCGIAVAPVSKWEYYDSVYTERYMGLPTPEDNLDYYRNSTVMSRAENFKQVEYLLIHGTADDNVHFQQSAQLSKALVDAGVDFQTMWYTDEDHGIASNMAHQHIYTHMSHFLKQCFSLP
Assay: Assay of DPP-IV enzyme inhibitory activity (spectrophotometric, Gly-Pro-pNA cleavage)
Format: biochemical
Details: Porcine DPP-IV, Gly-Pro-pNA substrate, 30° C.; mean ± SD of three experiments except compound Nos. 133 & 139; read-out: IC50 (μM) Mean ± SD, inhibitory activity on DPP-IV enzyme activity
Structures can show the parent of a compound that is named as a salt.
Measure name: IC50 (µM)

CC1CC(N(N)CC(=O)N2CSCC2C#N)CC(C)(C)C1 (stereo not shown) : 0.92
Cc1nc(NC(=O)CN2CCC(N(N)CC(=O)N3CSCC3C#N)CC2)sc1C (stereo not shown) [compound 145, trihydrochloride] : 0.715
CCCC1CCC(N(N)CC(=O)N2CSCC2C#N)CC1 (stereo not shown) [Compound No. 60] : 0.69
N#CC1CCCN1C(=O)CN(N)C1CCCC1 (stereo not shown) : 32.1

----------
Item-by-item account of % Activity (antioxidant, DPPH)
Test: In-vitro free radical scavenging activity using DPPH free radical
Settings: Concentration 100 μM; 30° C., 30 minutes, 515 nm
Structures can show the parent of a compound that is named as a salt.
Give the number; % is assumed, so skip it.

# count of solved cases: 4
CCN(C)C(=O)N1CCC(N(N)CC(=O)N2CSCC2C#N)CC1.O=C(O)C(F)(F)F (centres unmarked) : 82.75
N#CC1CSCN1C(=O)CN(N)C1CCN(CC(=O)Nc2ccc3c(c2)OCO3)CC1 (centres unmarked) : 56.37
N#CC1CSCN1C(=O)CN(N)C1CCC(NC(=O)c2ccc(F)cc2)CC1.O=C(O)C(F)(F)F (centres unmarked) : 77.75
CCNN(CC(=O)N1CSCC1C#N)C1CCN(C(=O)N2CCOCC2)CC1.O=C(O)C(F)(F)F (centres unmarked) : 55.07

Input: Which % Activity (antioxidant, DPPH) value belongs to CS(=O)(=O)N1CCC(N(N)CC(=O)N2CSCC2C#N)CC1.O=C(O)C(F)(F)F (centres unmarked) ?
Output: 88.14

Input: Which % Activity (antioxidant, DPPH) value belongs to N#CC1CSCN1C(=O)CN(N)C1CCN(CC(=O)Nc2ccc(C(F)(F)F)cc2)CC1 (centres unmarked) ?
Output: 50.15

Input: Which % Activity (antioxidant, DPPH) value belongs to N#CC1CSCN1C(=O)CN(N)C1CCN(CC(=O)Nc2cccnc2Cl)CC1 (centres unmarked) ?
Output: 57.13

Input: Which % Activity (antioxidant, DPPH) value belongs to CCNN(CC(=O)N1CSCC1C#N)C1CCN(CC(=O)Nc2ccc(Cl)cn2)CC1 (centres unmarked) [Compound No. 101, tris-hydrochloride] ?
Output: 61.15

Input: Which % Activity (antioxidant, DPPH) value belongs to N#Cc1ccc(NC(=O)CN2CCC(N(N)CC(=O)N3CSCC3C#N)CC2)nc1 (centres unmarked) ?
Output: 55.03

Input: Which % Activity (antioxidant, DPPH) value belongs to Cc1nc(NC(=O)CN2CCC(N(N)CC(=O)N3CSCC3C#N)CC2)sc1C (centres unmarked) ?
Output: 54.93

Input: Which % Activity (antioxidant, DPPH) value belongs to N#CC1CSCN1C(=O)CN(N)C1CCN(Cc2ccc(F)cc2)CC1 (centres unmarked) ?
Output: 55.85
